- EXPERIMENTAL SYSTEM: human recombinant adrenergic α2A receptor (Homo sapiens, UniProt P08913)
- Construct: expressed in transfected cells; host or cells: insect Sf9 cells
- Sequence (P08913 whole entry): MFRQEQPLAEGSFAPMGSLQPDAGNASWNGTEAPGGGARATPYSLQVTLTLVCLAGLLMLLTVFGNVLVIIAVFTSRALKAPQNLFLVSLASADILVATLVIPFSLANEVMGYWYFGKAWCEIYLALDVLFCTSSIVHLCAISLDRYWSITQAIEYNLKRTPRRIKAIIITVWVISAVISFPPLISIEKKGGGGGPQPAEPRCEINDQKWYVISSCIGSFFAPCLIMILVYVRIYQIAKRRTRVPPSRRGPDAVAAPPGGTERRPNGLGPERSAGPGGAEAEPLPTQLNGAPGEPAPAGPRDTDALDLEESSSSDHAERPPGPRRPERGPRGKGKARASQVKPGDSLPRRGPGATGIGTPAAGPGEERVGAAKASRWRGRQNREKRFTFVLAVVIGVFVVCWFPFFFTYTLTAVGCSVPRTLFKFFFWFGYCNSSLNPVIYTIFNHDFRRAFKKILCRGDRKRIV
- TEST DESCRIPTION: Adrenergic α2A radioligand binding ([3H]MK-912)
- Design: concentration or dose not given beside the values
- CONDITION SUMMARY: percent inhibition of specific binding
Would you mind labelling by Inhibition of ligand binding, Adren. alpha2A? At or over 60% is met, under is not met.

{"COMPOUND": "Cc1ccc2c(c1)c1c(n2CCc2ccccc2F)CCN(C)C1", "ASSIGNED CLASS": "met"}
{"COMPOUND": "CN1CCc2c(c3cc(Cl)ccc3n2CCC(=O)N2CCCCC2)C1", "ASSIGNED CLASS": "not met"}
{"COMPOUND": "Cc1ccc2c(c1)c1c(n2CCc2ccc(C(=O)O)nc2)CCN(C)C1", "ASSIGNED CLASS": "not met"}
{"COMPOUND": "CN1CCc2c(c3cc(Cl)ccc3n2CCc2ccc(Cl)cc2)C1", "ASSIGNED CLASS": "met"}
{"COMPOUND": "Cc1ccc2c(c1)c1c(n2CCc2ccc(C)[n+]([O-])c2)CCN(C)C1", "ASSIGNED CLASS": "not met"}
{"COMPOUND": "Cc1ccc2c(n1)c1c(n2CCc2ccc(C(F)(F)F)nc2)CCN(C)C1", "ASSIGNED CLASS": "not met"}
{"COMPOUND": "COc1ccc(CCn2c3c(c4cc(Cl)ccc42)CN(C)CC3)cc1", "ASSIGNED CLASS": "met"}
{"COMPOUND": "CN1CCc2c(c3cc(Cl)cc(F)c3n2CCc2ccc(C(F)(F)F)nc2)C1", "ASSIGNED CLASS": "met"}
{"COMPOUND": "Cc1ccc2c(c1)c1c(n2CCC2CCCCC2)CCN(C)C1", "ASSIGNED CLASS": "met"}
{"COMPOUND": "Cc1ccc2c(c1)c1c(n2CCc2ccc(C)nc2)CCNC1", "ASSIGNED CLASS": "not met"}
{"COMPOUND": "Cc1cnc(CCn2c3c(c4cc(C(C)C)ccc42)CN(C)CC3)cn1", "ASSIGNED CLASS": "not met"}
{"COMPOUND": "Cc1cncc(CCn2c3c(c4cc(C)ccc42)CN(C)CC3)c1", "ASSIGNED CLASS": "met"}
{"COMPOUND": "CC1CCCCN1C(=O)Cn1c2c(c3cc(Cl)ccc31)CN(C)CC2 (centres unmarked)", "ASSIGNED CLASS": "not met"}
{"COMPOUND": "Cc1ccc2c(c1)c1c(n2CCc2ccccc2)CCNC1", "ASSIGNED CLASS": "met"}
{"COMPOUND": "CN1CCc2c(c3cc(Cl)ccc3n2CCc2ccncc2)C1", "ASSIGNED CLASS": "met"}
{"COMPOUND": "CCN1CCc2c(c3ccccc3n2Cc2ccccc2)C1", "ASSIGNED CLASS": "not met"}
{"COMPOUND": "CN1CCc2c(c3cc(Cl)ccc3n2CCc2ccc(F)cc2)C1", "ASSIGNED CLASS": "met"}
{"COMPOUND": "Cc1ccc2c(c1)c1c(n2CCc2cnccn2)CCN(C)C1", "ASSIGNED CLASS": "not met"}
{"COMPOUND": "CCN1CCc2c(c3cc(C)ccc3n2Cc2ccccc2)C1", "ASSIGNED CLASS": "not met"}
{"COMPOUND": "CC1CCN(C(=O)Cn2c3c(c4cc(Cl)ccc42)CN(C)CC3)CC1", "ASSIGNED CLASS": "not met"}
{"COMPOUND": "Cc1ccc2c(c1)c1c(n2CCc2ccc(C)nc2)CCN(C)C1=O", "ASSIGNED CLASS": "not met"}
{"COMPOUND": "CN1CCc2c(c3cc(Cl)ccc3n2CC(=O)N2CCCCC2)C1", "ASSIGNED CLASS": "not met"}
{"COMPOUND": "CN1CCc2c(c3ccccc3n2CCc2ccccn2)C1", "ASSIGNED CLASS": "not met"}
{"COMPOUND": "CCOc1ccc(CCn2c3c(c4cc(C)ccc42)CN(C)CC3)cc1", "ASSIGNED CLASS": "met"}
{"COMPOUND": "Cc1ccc(CCn2c3c(c4ccccc42)CN(C)CC3)cc1", "ASSIGNED CLASS": "met"}
{"COMPOUND": "Cc1ccc2c(c1)c1c(n2CCc2cccnc2)CCN(C)C1", "ASSIGNED CLASS": "met"}
{"COMPOUND": "Cc1ccc2c(c1)c1c(n2CCc2ccc(C)nc2)CCN(C)C1 [Dimebon, dimebon, reference compound]", "ASSIGNED CLASS": "met"}
{"COMPOUND": "CC(C)N1CCN(C(=O)Cn2c3c(c4cc(Cl)ccc42)CN(C)CC3)CC1", "ASSIGNED CLASS": "not met"}
{"COMPOUND": "Cc1ccc(CCn2c3c(c4cc(Cl)ccc42)CN(C)CC3)cn1", "ASSIGNED CLASS": "met"}
{"COMPOUND": "Cc1ccc2c(c1)c1c(n2CC(=O)N2CCC(C)CC2)CCN(C)C1", "ASSIGNED CLASS": "not met"}
{"COMPOUND": "Cc1ccc2c(c1)c1c(n2CCc2ccc(C)nc2)CCN(C2CC2)C1", "ASSIGNED CLASS": "not met"}
{"COMPOUND": "Cc1ccc2c(c1)c1c(n2CCc2ccc(Cl)cc2)CCN(C)C1", "ASSIGNED CLASS": "met"}
{"COMPOUND": "Cc1ccc(CCn2c3c(c4cc(C(=O)O)ccc42)CN(C)CC3)cn1", "ASSIGNED CLASS": "not met"}
{"COMPOUND": "CN1CCc2c(c3c(Cl)cccc3n2CCc2ccccc2)C1", "ASSIGNED CLASS": "met"}
{"COMPOUND": "CN1CCc2c(c3cc(Cl)ccc3n2CCc2cncnc2)C1", "ASSIGNED CLASS": "not met"}
{"COMPOUND": "CCc1ccc2c(c1)c1c(n2CCc2cnc(C)cn2)CCN(C)C1", "ASSIGNED CLASS": "met"}
